target: T1, human angiotensin converting enzyme 2 (ACE2), recombinant (human, UniProt Q9BYF1 18-740); test: BLI; biotinylated peptide immobilised on streptavidin tips (loaded at 1.0-2.0 uM); protein in solution (ACE2 at 1000, 500, 250, 125 and 62.5 nM); 30 °C, 1000 rpm; 1 x PBS with 0.1% BSA and 0.02% Tween-20; 180 s association; global 1:1 fit; apparent KD; details: both partners purified
T1 construct: also called soluble ACE2; recombinant ACE2 protein; source: bought: Sino Biological (Catalog number 10108-H08H) for BLI
T1 sequence (Q9BYF1 18-740): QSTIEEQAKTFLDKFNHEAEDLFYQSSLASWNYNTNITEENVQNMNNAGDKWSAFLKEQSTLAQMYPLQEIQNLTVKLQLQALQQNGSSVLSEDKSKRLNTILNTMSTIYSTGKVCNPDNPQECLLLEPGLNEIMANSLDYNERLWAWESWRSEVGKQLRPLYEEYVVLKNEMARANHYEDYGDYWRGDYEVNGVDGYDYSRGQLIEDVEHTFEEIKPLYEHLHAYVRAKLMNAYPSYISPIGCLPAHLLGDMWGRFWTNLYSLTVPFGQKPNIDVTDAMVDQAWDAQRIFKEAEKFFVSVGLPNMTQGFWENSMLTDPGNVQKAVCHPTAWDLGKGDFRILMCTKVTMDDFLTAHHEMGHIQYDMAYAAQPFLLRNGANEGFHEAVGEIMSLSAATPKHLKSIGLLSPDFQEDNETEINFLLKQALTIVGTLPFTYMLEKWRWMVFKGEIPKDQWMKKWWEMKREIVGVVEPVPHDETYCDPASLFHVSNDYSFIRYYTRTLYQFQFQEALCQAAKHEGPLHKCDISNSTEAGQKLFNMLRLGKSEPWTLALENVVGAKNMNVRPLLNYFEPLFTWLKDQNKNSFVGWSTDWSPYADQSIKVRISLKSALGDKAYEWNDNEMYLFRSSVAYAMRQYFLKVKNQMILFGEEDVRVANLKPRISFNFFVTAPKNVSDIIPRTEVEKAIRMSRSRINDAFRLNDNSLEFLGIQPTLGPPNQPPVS
Where no end group is shown, it is not given here.
Recorded Kd, one value per entry.
Value expressed in nM; do not type the unit.

A selection of reference data follows.
Measured Kd, LHKQFGWHWFGFK-NH2 (also: biotinylated, position not given here) [ACE2-binding peptide ABP C3] : 35

Measured Kd, LQRGVFGFPYRVK-NH2 (also: biotinylated, position not given here) [ACE2-binding peptide ABP C7] : 26

Turning now to a further binder:
Measured Kd, LQWHPAYWFMQVK-NH2 (also: biotinylated, position not given here) [ACE2-binding peptide ABP C8] : 36

These data points were gathered from paper PMC9814530.
